pIC50: −log10 of the molar value.
Observed pIC50, system Aldo-keto reductase family 1 member B1 (Rattus norvegicus, UniProt P07943).
experimental readout: pIC50

- COc1cc(-c2oc3cc(O)cc(O)c3c(=O)c2O[C@@H]2O[C@@H](C)[C@H](O)[C@@H](O)[C@H]2O)ccc1O: 4.72
- CC(=O)O[C@H]1[C@H](Oc2c(-c3ccc(O)c(O)c3)oc3cc(O)cc(O)c3c2=O)O[C@H](CO[C@@H]2O[C@@H](C)[C@H](O)[C@@H](O)[C@H]2O)[C@@H](O)[C@@H]1O: 4.74
- C[C@@H]1O[C@@H](O[C@H]2[C@H](Oc3c(-c4ccc(O)c(O)c4)oc4cc(O)cc(O)c4c3=O)O[C@H](CO)[C@H](O)[C@@H]2O)[C@H](O)[C@H](O)[C@H]1O: 4.74
- C[C@@H]1O[C@@H](OC[C@H]2O[C@@H](Oc3c(-c4ccc(O)c(O)c4)oc4cc(O)cc(O)c4c3=O)[C@H](O)[C@@H](O)[C@@H]2O)[C@H](O)[C@H](O)[C@H]1O: 4.89
